# AC50 listing for each entry below
Tested on: MYB mRNA
Experiment: RT-qPCR splicing assay, MYB canonical (CJ) and alternative (AJ) junction mRNA
Format: cell-based
Conditions: Homo sapiens; increase in alternative junction mRNA; A673 or K562 cells, 24 hours treatment; Table 2; read-out: MYB AJ AC50
Measured property: AC50

Molecule	Experimental system	Value observed
Cc1cn2nc(-c3cc4cn(C5CCNCC5)nc4cc3O)cc(C)c2n1 [Compound 154]	MYB mRNA	100 to 1000 nM
Cc1cn2nc(-c3cc4cn(C5CCNCC5)nc4cn3)cc(C)c2n1 [Compound 147]	MYB mRNA	100 to 1000 nM
Cc1cn2nc(-c3cc(F)c4nn(C5CCN(C)CC5)cc4c3)cc(C)c2n1 [Compound 150]	MYB mRNA	100 to 1000 nM
Cc1cn2nc(-c3cc(F)c4nn(C5CCN(CCF)CC5)cc4c3)cc(C)c2n1 [Compound 152]	MYB mRNA	100 to 1000 nM
Cc1cc(-c2cc(F)c3nn(C4CCNCC4)cc3c2)cc2cn(C)nc12 [Compound 133]	MYB mRNA	100 to 1000 nM
Cc1cn2nc(-c3cc(F)c4nn(C5CCNC6(CCC6)C5)cc4c3)cc(C)c2n1 (centres unmarked) [Compound 189]	MYB mRNA	100 to 1000 nM
Cc1cn2nc(-c3cc(F)c4nn([C@H]5CCN(C)C[C@@H]5F)cc4c3)cc(C)c2n1 [Compound 196]	MYB mRNA	1000 to 10000 nM
Cc1cn2nc(-c3cc(F)c4nn(C5CCNC6(CC6)C5)cc4c3)cc2c(C)n1 (centres unmarked) [Compound 204]	MYB mRNA	1000 to 10000 nM

* * *

System: MYB mRNA
Assay: RT-qPCR splicing assay, MYB canonical (CJ) and alternative (AJ) junction mRNA
Assay type: cell-based
Details: Homo sapiens; increase in alternative junction mRNA; A673 or K562 cells, 24 hours treatment; Table 2; read-out: MYB AJ AC50
Measured property: AC50

Cc1ncc2cc(-c3cc(F)c4nn(C5CCNCC5)cc4c3)ccc2n1 > 10 µM
Cc1nc2ccc(-c3cc(F)c4nn(C5CCNCC5)cc4c3)cc2o1 0.1 to 1 µM
Cc1cn2nc(-c3nc4cn(C5CCNCC5)nc4c(=O)[nH]3)cc(C)c2n1 0.1 to 1 µM
Cc1cn2nc(-c3cc(F)c4nn(C5CCN(CC6CC6)CC5)cc4c3)cc(C)c2n1 0.1 to 1 µM
Cc1cn2nc(-c3cc(F)c4nn([C@@H]5CCN(C)C6(CC6)C5)cc4c3)cc(C)c2n1 1 to 10 µM
